target: D(1A) dopamine receptor (Homo sapiens) (UniProt P21728); assay: Antagonist of Human D 1 Dopamine Receptor: qHTS; conditions: HEK293 TREx D1 cells, calcium flux, dopamine EC80; at 10 µM; note: % is set by controls: 0 for no effect and ±100 for the full control effect
Sequence (P21728 whole entry, looked up): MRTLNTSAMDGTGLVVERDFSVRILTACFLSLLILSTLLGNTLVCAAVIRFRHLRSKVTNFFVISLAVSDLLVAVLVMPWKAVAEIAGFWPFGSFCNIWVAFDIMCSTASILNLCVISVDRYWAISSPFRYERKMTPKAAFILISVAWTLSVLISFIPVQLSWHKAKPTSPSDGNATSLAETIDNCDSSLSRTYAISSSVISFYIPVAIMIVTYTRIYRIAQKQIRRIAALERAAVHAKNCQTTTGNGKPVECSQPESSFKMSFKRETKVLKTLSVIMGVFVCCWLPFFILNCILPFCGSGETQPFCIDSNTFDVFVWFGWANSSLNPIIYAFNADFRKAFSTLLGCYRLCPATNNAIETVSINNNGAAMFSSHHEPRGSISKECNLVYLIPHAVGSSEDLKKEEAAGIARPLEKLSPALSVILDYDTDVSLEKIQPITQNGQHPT
The whole screen tested about 360,000 compounds, of which about 11,000 (3.1%) were called active. Cut-off read from the data, not from the text of the source: active = activity change below about -30%; inactive = the rest. For the sample, actives were picked, then their nearest neighbours and some compounds at random.
Mark one answer only. Choices: active, inactive

- COMPOUND: "CN(CC(=O)Nc1ccc(Cl)cc1)C(=O)c1ccc(COc2ccccc2)cc1"
  GROUP LABEL: "inactive"
- COMPOUND: "OCCC1CN(Cc2cccc(O)c2)CCN1CCc1ccccc1 (stereo unspecified)"
  GROUP LABEL: "active"
- COMPOUND: "COc1ccc(C(=O)C2CCCN(Cc3cccn3-c3ccccn3)C2)c(C)c1 (stereo unspecified)"
  GROUP LABEL: "active"
- COMPOUND: "O=C1c2cccc3c([N+](=O)[O-])ccc(c23)C(=O)N1CC1CCCO1 (stereo unspecified)"
  GROUP LABEL: "active"

Query: recorded result category for CCCCCCn1nnc2sc(-c3ccccc3)cc2c1=O in this test
inactive

How was O=C(Nc1ccc(N2CCN(C(=O)c3cccs3)CC2)cc1)c1cccnc1Cl classified in this test?
inactive

Which outcome was assigned to COc1cc(OC)c(C(=O)NC2CC(C)(C)NC(C)(C)C2)cc1OC in this test?
inactive

Identify the outcome logged in this assay for the compound shown: Oc1ccc(-c2csc(Nc3cccnc3)n2)cc1
active

// outcome(item) with item = Cc1cc(C(=O)Nc2ccc(C)c(S(=O)(=O)N3CCOCC3)c2)c2ccccc2n1
inactive

Write down the call the test reported for this compound. Item: COc1ccc(C(=O)NC2CC(C)(C)NC(C)(C)C2)cc1OC
active

Which outcome did this test record for the compound CC(OC(=O)CCCc1c[nH]c2ccccc12)C(=O)Nc1ccc(S(N)(=O)=O)cc1 (stereo unspecified) ?
inactive

###

molecular target: D(1A) dopamine receptor (Homo sapiens); assay: Antagonist of Human D 1 Dopamine Receptor: qHTS; details: HEK293 TREx D1 cells, calcium flux, dopamine EC80; at 10 µM; stronger effect = lower value; note: % is set by controls: 0 for no effect and ±100 for the full control effect
The campaign covered roughly 360,000 compounds. About 11,000 (3.1%) were called active. Many of the other results were omitted from the sample, so actives are more common in it than they were.
Listed next: entries and their corresponding activity change, negative = inhibition.
Numbers only; they are read as %.

- COMPOUND: "COc1cccc(CNC(=O)CCC(=O)N2CC3CCCN3c3ccccc32)c1 (centres undefined)"
  MEASURED ON: "D(1A) dopamine receptor (Homo sapiens)"
  VALUE UNIT: "%"
  activity change, negative = inhibition: -1.97
- COMPOUND: "O=C(Nc1ccc(F)cc1F)c1ccc2c(=O)n3c(nc2c1)CCCCC3"
  MEASURED ON: "D(1A) dopamine receptor (Homo sapiens)"
  VALUE UNIT: "%"
  activity change, negative = inhibition: 0.28
- COMPOUND: "CCOc1ccccc1C(=O)Nc1ccc2c(c1)N(C)C(=O)c1ccccc1S2"
  MEASURED ON: "D(1A) dopamine receptor (Homo sapiens)"
  VALUE UNIT: "%"
  activity change, negative = inhibition: -16.7

# ---- query compound ----
For record CCOc1ccc(C(=O)Nc2ccc3nc4c(c(Nc5ccccc5OC)c3c2)CCCC4)cc1 the listed activity change, negative = inhibition is -7.4

Numbers sourced from PubChem BioAssay AID504652.
